The values you see were collected from ChEMBL document CHEMBL1961873.

Target: Cytoplasmic tyrosine-protein kinase BMX (Homo sapiens) (UniProt P51813);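 note: reported value is the mean percent inhibition of BMX, from the GSK PKIS kinase inhibitor screen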
Sequence (whole entry): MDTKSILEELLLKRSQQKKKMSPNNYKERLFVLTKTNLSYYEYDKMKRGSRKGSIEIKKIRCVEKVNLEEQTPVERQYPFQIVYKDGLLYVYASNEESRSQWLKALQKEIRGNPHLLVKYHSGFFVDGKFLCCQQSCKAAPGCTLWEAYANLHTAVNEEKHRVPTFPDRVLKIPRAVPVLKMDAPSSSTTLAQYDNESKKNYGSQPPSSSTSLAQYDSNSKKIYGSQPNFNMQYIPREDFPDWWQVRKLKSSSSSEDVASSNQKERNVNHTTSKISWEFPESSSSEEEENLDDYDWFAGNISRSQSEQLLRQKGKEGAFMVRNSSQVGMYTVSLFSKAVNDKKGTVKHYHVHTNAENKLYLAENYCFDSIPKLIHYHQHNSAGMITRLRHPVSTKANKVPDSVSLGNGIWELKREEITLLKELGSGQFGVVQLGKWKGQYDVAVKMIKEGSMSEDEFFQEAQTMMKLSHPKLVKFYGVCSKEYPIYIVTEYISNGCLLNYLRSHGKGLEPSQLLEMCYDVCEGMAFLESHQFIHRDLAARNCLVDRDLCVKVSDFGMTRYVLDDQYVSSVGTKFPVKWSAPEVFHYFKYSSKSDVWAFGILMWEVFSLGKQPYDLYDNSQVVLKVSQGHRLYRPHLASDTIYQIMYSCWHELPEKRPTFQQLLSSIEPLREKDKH
Settings: at 1 µM
Reported inhibition by item:
Express your answer in %, writing the number without its unit.

Solved cases below.
>>> measured("NS(=O)(=O)c1ccc(Nc2ncc(-c3ccccc3)o2)cc1")
5.05
>>> measured("COc1ccc(CNC(=O)c2ccc(-c3cc(-c4nnc(C)o4)ccc3C)cc2)cc1")
0.63
>>> measured("Cc1ccc2c(-c3ccnc(Nc4ccccc4)n3)c(-c3ccc(F)cc3)nn2n1")
42.7

Data request: Consider the compound `NS(=O)(=O)c1ccc(N/N=C2\C(=O)Nc3ccc4ncccc4c32)cc1` and give its measured inhibition.
Data returned: 25.3

Data request: Also need `CCN(CC)S(=O)(=O)c1ccc(OC)c(Nc2ncc(-c3ccccc3)o2)c1` , thanks.
Data returned: 7.38
